Taken from patent US20090069320A1.

tested-target: mGluR5 receptor (Sus scrofa)
Construct: 450 μg of protein from brain homogenate with 5 nM ^3[H]-MPEP; from tissue; host or cells: pig brain halves without medulla, cerebellum and pons
Sequence (I3LUI7 19-1212): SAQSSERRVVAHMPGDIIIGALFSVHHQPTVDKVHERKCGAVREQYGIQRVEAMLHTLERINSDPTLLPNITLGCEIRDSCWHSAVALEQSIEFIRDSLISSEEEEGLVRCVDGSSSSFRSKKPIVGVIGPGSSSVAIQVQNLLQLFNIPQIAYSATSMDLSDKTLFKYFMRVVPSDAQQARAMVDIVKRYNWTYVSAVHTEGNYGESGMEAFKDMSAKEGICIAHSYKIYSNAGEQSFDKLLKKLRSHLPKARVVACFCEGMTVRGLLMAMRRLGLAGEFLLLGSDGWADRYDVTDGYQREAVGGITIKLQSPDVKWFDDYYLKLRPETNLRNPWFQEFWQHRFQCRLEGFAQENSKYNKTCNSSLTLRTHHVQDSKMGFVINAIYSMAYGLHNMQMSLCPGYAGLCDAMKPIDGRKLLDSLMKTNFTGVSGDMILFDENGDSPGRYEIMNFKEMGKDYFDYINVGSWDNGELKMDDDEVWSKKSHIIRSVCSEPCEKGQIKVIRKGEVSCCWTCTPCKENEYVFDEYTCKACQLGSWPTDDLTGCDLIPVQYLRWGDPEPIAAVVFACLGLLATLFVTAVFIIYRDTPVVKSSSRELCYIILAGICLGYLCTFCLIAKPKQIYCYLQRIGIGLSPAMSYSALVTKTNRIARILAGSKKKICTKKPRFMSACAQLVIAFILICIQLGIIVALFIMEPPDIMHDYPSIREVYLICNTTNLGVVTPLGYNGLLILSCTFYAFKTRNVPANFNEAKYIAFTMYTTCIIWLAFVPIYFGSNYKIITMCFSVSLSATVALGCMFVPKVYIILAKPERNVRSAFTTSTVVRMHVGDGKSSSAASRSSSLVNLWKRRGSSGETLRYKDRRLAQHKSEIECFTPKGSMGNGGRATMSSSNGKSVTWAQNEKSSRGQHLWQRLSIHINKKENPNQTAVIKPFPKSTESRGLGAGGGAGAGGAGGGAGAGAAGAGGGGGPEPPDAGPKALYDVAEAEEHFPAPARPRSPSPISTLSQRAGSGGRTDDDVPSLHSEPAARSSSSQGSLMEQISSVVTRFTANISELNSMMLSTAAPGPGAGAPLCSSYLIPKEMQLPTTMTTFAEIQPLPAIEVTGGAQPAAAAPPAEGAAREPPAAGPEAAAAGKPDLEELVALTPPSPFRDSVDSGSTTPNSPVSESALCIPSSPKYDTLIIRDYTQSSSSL
test-details: [3H]-MPEP mGluR5 receptor binding assay (pig brain homogenate)
experimental-parameters: 10 μM compound, 5 nM [3H]-MPEP, read-out: % Inhibition of mGluR5 Receptor (pig) [^3H]-MPEP Bond at 10 μM
Protocol: I. Method for Determining the Inhibition of the [^3H]-MPEP Bond in the mGluR5 Receptor Binding Assay […] The batches are then filtered using a Brandel cell harvester (Brandel, Robotic 9600) on unifilter plates with fibreglass filter mats (Perkin Elmer, order no. 6005177) and then washed with buffer (as above) 3-times each with 250 μl per sample. […] The non-specific binding is determined by adding 10 μM of MPEP (Tocris, order no. 1212).
Hi, to clarify the labels: YES covers inhibition at 10 µM from 70% upward, NO covers anything below 70%.

Past entries and their recorded results:
[
  {
    "chemical-string": "Cc1cccc(CNc2ncnc3ccc(-c4cccc(CN(C(=O)CN(C)C)C5CC5)c4)cc23)c1",
    "tested-target": "mGluR5 receptor (Sus scrofa)",
    "class-name": "NO"
  },
  {
    "chemical-string": "O=C(c1cccc(Br)n1)N(Cc1cccc(-c2ccc3ncnc(NC4CC4)c3c2)c1)C1CC1",
    "tested-target": "mGluR5 receptor (Sus scrofa)",
    "class-name": "YES"
  },
  {
    "chemical-string": "Cc1nc(C(=O)N(Cc2cccc(-c3cc(F)c4ncnc(NC5CC5)c4c3)c2)C2CC2)cs1",
    "tested-target": "mGluR5 receptor (Sus scrofa)",
    "class-name": "YES"
  },
  {
    "chemical-string": "Cc1nc(NC2CC2)c2cc(-c3ccc(F)c(CN(C(=O)CCc4ccccc4)C4CC4)c3)ccc2n1",
    "tested-target": "mGluR5 receptor (Sus scrofa)",
    "class-name": "YES"
  }
]

Q: Could you verify whether the entry CS(=O)(=O)N(Cc1cccc(-c2ccc3ncnc(NCCc4ccccc4)c3c2)c1)C1CC1 shows inhibition at 10 µM of no less than 70%?
Ans: YES

Q: Hello, I need to know if O=C(c1ccncc1)N(Cc1cc(-c2ccc3ncnc(NC4CC4)c3c2)ccc1F)C1CC1 has measured inhibition at 10 µM not below 70%. Thanks!
Ans: YES

Q: For this compound, is measured inhibition at 10 µM 70% or higher? O=C(COc1ccccc1)N(Cc1cccc(-c2ccc3ncnc(N4CCCC4)c3c2)c1)C1CC1
Ans: NO

Q: Would you say CN(C)CC(=O)N(Cc1cccc(-c2ccc3ncnc(NCCc4ccccc4)c3c2)c1)C1CC1 shows inhibition at 10 µM at minimum 70%?
Ans: NO

Q: Could you verify whether the entry Cc1cc2ncnc(NC3CC3)c2cc1-c1cccc(CN(C(=O)c2cccc(F)c2)C2CC2)c1 shows inhibition at 10 µM of no less than 70%?
Ans: YES

====

Reported inhibition at 10 µM values follow for various molecules
tested-target: mGluR5 receptor (Sus scrofa)
Construct: 450 μg of protein from brain homogenate with 5 nM ^3[H]-MPEP; from tissue; host or cells: pig brain halves without medulla, cerebellum and pons
test-details: [3H]-MPEP mGluR5 receptor binding assay (pig brain homogenate)
experimental-parameters: 10 μM compound, 5 nM [3H]-MPEP, read-out: % Inhibition of mGluR5 Receptor (pig) [^3H]-MPEP Bond at 10 μM
Number only, in %; omit the unit.

[
  {
    "molecule": "Cc1cccc(CNc2ncnc3ccc(-c4cccc(CN(C(=O)c5ccncc5)C5CC5)c4)cc23)c1 [Example 403]",
    "inhibition at 10 µM [%]": 40
  },
  {
    "molecule": "O=S(=O)(c1cccs1)N(Cc1cc(-c2ccc3ncnc(NC4CC4)c3c2)ccn1)C1CC1 [Example 788]",
    "inhibition at 10 µM [%]": 77
  },
  {
    "molecule": "c1cc(Cn2cccc2)cc(-c2ccc3ncnc(NC4CC4)c3c2)c1 [Example 876]",
    "inhibition at 10 µM [%]": 47
  }
]

// next item, inhibition at 10 µM requested
Q: Need inhibition at 10 µM of CN(c1ncnc2ccc(-c3ccc(F)c(CN(C(=O)c4cccs4)C4CC4)c3)cc12)C1CC1 [Example 427] , thanks.
Ans: 95
